Protocol summary: Measurement of logP values by HPLC on reversed phase columns (EEC directive 79/831 Annex V.A8)
Type: physicochemical
Measurement parameters: pH 2.7, 0.1% formic acid in water / acetonitrile gradient 10% to 95%
Property name: logp

> print(dat)
                                    compound  result
 1  CCCCCOC(=O)Nc1cccc(CON=C(c2cc(C)ccc2Cl)c2nnnn2C)n1 [Example 84]    4.73
 2  CCCCCC(=O)Nc1cccc(CON=C(c2ccc(C(F)(F)F)cc2F)c2nnnn2C)n1 [Example 26]    4.29
 3  CCCCCC(=O)Nc1cccc(CON=C(c2ccc(C)c(C(F)(F)F)c2)c2nnnn2C)n1 [Example 89]    4.56
 4  CCCCCC(=O)Nc1cccc(CON=C(c2ccc(C)c(C(F)(F)F)c2)c2nnnn2C)n1 [Example 118]    4.56
 5  CCCCCOC(=O)Nc1cccc(CON=C(c2ccc(C)c(C(F)(F)F)c2)c2nnnn2C)n1 [Example 78]    5.05
 6  Cc1ccc(C(F)(F)F)cc1C(=NOCc1cccc(NC(=O)CC(C)C)n1)c1nnnn1C [Example 67]    3.62
 7  CC(C)CC(=O)Nc1cccc(CON=C(c2cc(C(F)(F)F)ccc2Cl)c2nnnn2C)n1 [Example 63]    3.96
 8  CC(C)CC(=O)Nc1cccc(CON=C(c2ccc(Cl)c(C(F)(F)F)c2)c2nnnn2C)n1 [Example 70]    4.26
 9  CCCCCC(=O)Nc1cccc(CON=C(c2ccc(F)c(C(F)(F)F)c2)c2nnnn2C)n1 [Example 104]    4.36
10  CCCCCC(=O)Nc1cccc(CON=C(c2ccc(C)c(F)c2)c2nnnn2C)n1 (single isomer, unassigned) [Example 102]    4.21
11  Cc1ccc(C(=NOCc2cccc(NC(=O)CC(C)C)n2)c2nnnn2C)cc1F [Example 32]    3.71
12  Cc1ccc(Cl)c(C(=NOCc2cccc(NC(=O)CC(C)C)n2)c2nnnn2C)c1 [Example 35]    3.73
13  Cc1ccc(F)c(C(=NOCc2cccc(NC(=O)CC(C)C)n2)c2nnnn2C)c1 [Example 48]    3.53
14  COc1ccccc1CC(=O)Nc1cccc(CON=C(c2ccc(F)c(C)c2)c2nnnn2C)n1 [Example 61]     3.9
15  Cc1ccc(C(F)(F)F)cc1C(=NOCc1csc(N)n1)c1nnnn1C [Example 130]    1.92
16  CCCCCOC(=O)Nc1cccc(CON=C(c2cc(C(F)(F)F)ccc2C)c2nnnn2C)n1 (single isomer, unassigned) [Example 110]    4.84
17  CCCCCOC(=O)Nc1cccc(CON=C(c2ccc(C)c(C(F)(F)F)c2)c2nnnn2C)n1 [Example 81]    5.08
18  CCCCCOC(=O)Nc1cccc(CON=C(c2cc(C)ccc2F)c2nnnn2C)n1 [Example 121]    4.19
19  Cc1cc(C(=NOCc2cccc(NC(=O)CC(C)C)n2)c2nnnn2C)ccc1F [Example 37]    3.67
20  Cc1cc(C(=NOCc2cccc(NC(=O)CCC3CCCC3)n2)c2nnnn2C)ccc1F [Example 58]    4.56
21  Cc1c(F)cccc1C(=NOCc1cccc(NC(=O)CC(C)C)n1)c1nnnn1C [Example 73]    3.53
22  CCCCCC(=O)Nc1cccc(CON=C(c2cc(C(F)(F)F)ccc2Cl)c2nnnn2C)n1 [Example 106]    4.39
23  CCCCCOC(=O)Nc1cccc(CON=C(c2ccc(F)c(C(F)(F)F)c2)c2nnnn2C)n1 [Example 82]    4.86
24  Cc1ccc(F)c(C(=NOCc2cccc(NC(=O)CC(C)C)n2)c2nnnn2C)c1 [Example 75]    3.42
25  CC(C)CC(=O)Nc1cccc(CON=C(c2ccc(C(F)(F)F)c(Cl)c2)c2nnnn2C)n1 [Example 71]    4.29
26  Cc1ccc(C(=NOCc2cccc(NC(=O)CC(C)C)n2)c2nnnn2C)c(Cl)c1 [Example 51]    3.53
27  C=CCCOC(=O)Nc1cccc(CON=C(c2ccc(F)c(C)c2)c2nnnn2C)n1 [Example 55]    3.92
28  CCCCCC(=O)Nc1cccc(CON=C(c2cc(C)ccc2Cl)c2nnnn2C)n1 (single isomer, unassigned) [Example 117]    4.19
29  Cc1ccc(F)c(C(=NOCc2csc(N)n2)c2nnnn2C)c1 [Example 132]    1.65
30  C=CCOC(=O)Nc1cccc(CON=C(c2ccc(F)c(C)c2)c2nnnn2C)n1 [Example 56]    3.63
31  COc1ccc(CC(=O)Nc2cccc(CON=C(c3ccc(F)c(C)c3)c3nnnn3C)n2)cc1 [Example 59]    3.68
